test system: Bacteroides caccae; assay: growth AUC relative to DMSO control (median of replicates) (fraction); higher = more growth (less inhibition), active = hit call of the paper; conditions: 20 µM; 24 h
measured-metric: growth AUC
Number only, please.

# count of solved cases: 6
[[record]]
compound = "O=C(O)c1cc(Oc2ccc(C(F)(F)F)cc2Cl)ccc1[N+](=O)[O-]"
measured_metric = "growth AUC"
recorded_measurement = 1.04

[[record]]
compound = "COP(=O)(OC)O/C(=C/Br)c1ccc(Cl)cc1Cl"
measured_metric = "growth AUC"
recorded_measurement = 1

[[record]]
compound = "Cl.NC1=NCCN1Cc1ccc(Cl)nc1"
measured_metric = "growth AUC"
recorded_measurement = 1.03

[[record]]
compound = "CCOP(=O)(OCC)O/C(=C/Br)c1ccc(Cl)cc1Cl"
measured_metric = "growth AUC"
recorded_measurement = 0.94

[[record]]
compound = "O=[N+]([O-])c1ccc(O)c([N+](=O)[O-])c1"
measured_metric = "growth AUC"
recorded_measurement = 0.987

[[record]]
compound = "O=c1oc2ccccc2c(O)c1C1CC(c2ccc(-c3ccccc3)cc2)Cc2ccccc21 (stereo not given)"
measured_metric = "growth AUC"
recorded_measurement = 0.895


# value lookup — system Bacteroides caccae, readout growth AUC, item CC(C)N(C)S(=O)(=O)NC(=O)c1cc(-n2c(=O)cc(C(F)(F)F)n(C)c2=O)c(F)cc1Cl
1.02

Could you do the same for O=S1(=O)OCC2C(CO1)C1(Cl)C(Cl)=C(Cl)C2(Cl)C1(Cl)Cl (stereo not given) , please?
0.997

Now the compound CC(=O)O.CCCCCCCCCCCCN=C(N)N
1.02

Now the compound CC(C)N(C(=O)COc1nnc(C(F)(F)F)s1)c1ccc(F)cc1
1.05

###

tested on: Collinsella aerofaciens; assay: growth AUC relative to DMSO control (median of replicates) (fraction); higher = more growth (less inhibition), active = hit call of the paper; details: 20 µM; 24 h
measured-metric: growth AUC
Response field accepts a number only; no unit should be typed.

Worked set:
[[record]]
molecule = "CN(C)C(=O)Nc1ccc(Cl)cc1"
recorded_measurement = 1.03

[[record]]
molecule = "COP(=S)(OC)Oc1cc(Cl)c(Cl)cc1Cl"
recorded_measurement = 1.04

[[record]]
molecule = "C[N+]1(C)CCCCC1.[Cl-]"
recorded_measurement = 1.02

[[record]]
molecule = "CCOP(=S)(OCC)OP(=S)(OCC)OCC"
recorded_measurement = 1.02


# query: growth AUC of entry CC(C)C1(C)N=C(c2ncccc2C(=O)O)NC1=O (configuration not stated)
0.978

Can you check CC(C)OC(=O)Nc1ccccc1 next?
1.02

Now this one: CC(C)(C)c1ccc(CSc2cnn(C(C)(C)C)c(=O)c2Cl)cc1
0.999

###

tested on: Collinsella aerofaciens; assay: growth AUC relative to DMSO control (median of replicates) (fraction); higher = more growth (less inhibition), active = hit call of the paper; details: 20 µM; 24 h
Parameter: growth AUC. Scope: all listed entries.
# answer = number (no unit)

Param item = COP(=S)(OC)Oc1ccc([N+](=O)[O-])c(C)c1 ; retrieve measured growth AUC.
0.952

Consider next the compound CN1COCN(Cc2cnc(Cl)s2)/C1=N/[N+](=O)[O-] in the same way.
1.02

And for CN(C)C(=O)Nc1cccc(OC(=O)NC(C)(C)C)c1 ?
0.918
